Source listed as paper PMC4980077.

Molecular target: full-length PKA-RIα regulatory subunit dimer (bovine, UniProt P00514 1-380)
Sequence (P00514 whole entry): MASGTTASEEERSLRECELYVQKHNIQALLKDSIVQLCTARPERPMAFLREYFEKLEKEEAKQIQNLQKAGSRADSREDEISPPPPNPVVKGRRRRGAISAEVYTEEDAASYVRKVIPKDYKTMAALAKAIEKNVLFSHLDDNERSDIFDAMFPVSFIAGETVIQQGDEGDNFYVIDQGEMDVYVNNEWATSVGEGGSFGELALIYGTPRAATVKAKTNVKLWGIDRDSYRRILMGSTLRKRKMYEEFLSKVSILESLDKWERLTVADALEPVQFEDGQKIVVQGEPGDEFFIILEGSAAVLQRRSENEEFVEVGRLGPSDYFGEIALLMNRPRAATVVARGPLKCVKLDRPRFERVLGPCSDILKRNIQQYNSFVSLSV
Test: fluorescence polarisation
pKd: −log10 of the molar value. Square brackets hold non-standard residues; d marks the D form. Ends that are not written are not given here. * marks the point of attachment. 5‑TAMRA = CN(C)c1ccc2c(-c3ccc(C(=O)*)cc3C(=O)[O-])c3ccc(N(C)C)cc3[o+]c2c1; pS = N[C@@H](COP(=O)(O)O)C(=O)O
EXPERIMENTAL_ENDPOINT: pKd

Which pKd value is on record for {5‑TAMRA}-IVILEYAHRL[pS]QDILCDALQQWAC (cysteine pairing not given here) [phosphorylated smAKAP-AKB domain peptide (pSer66), tagged with 5-TAMRA] ?
< 6.30
